Attribution: patent US20240042046A1

Test system: human HTT mRNA, SNP rs362331 C allele, GM09197 fibroblasts
TEST METHOD NOTES: Screening of HD molecules in GM09197 fibroblasts, allele-specific HTT mRNA by RT-PCR, C allele
Assay type: cell-based
COND: 48 hr, C allele, Emin = lowest % HTT observed within compound concentration 0.5 nM to 1000 nM
READOUT: GM 09197 E min 48 Hr C Allele (%)

CCS(=O)(=O)Nc1ccc(Oc2ccc(F)cc2F)c(-c2cn(C)c(=O)c3[nH]c(C(=O)Nc4ccc(OCCOCCOCCOCCOCCOCCOCCOCCOCCOCCOCCOCCOCCOCCOCCOCCNC(=O)CCNC(=O)c5nc(NC(=O)c6cc(NC(=O)CCNC(=O)c7nc(NC(=O)OCCNC(=O)c8cc(NC(=O)c9nc(NC(=O)CCNC(=O)c%10cc(NC(=O)c%11nccn%11C)cn%10C)cn9C)cn8C)cn7C)cn6C)cn5C)cc4)cc23)c1 | B (B is 90% to 80%)
CC(=O)N1c2ccc(-c3ccn(-c4ccc(OCCOCCOCCOCCOCCOCCOCCOCCOCCNC(=O)CCNC(=O)c5nc(NC(=O)c6cc(NC(=O)CCNC(=O)c7nc(NC(=O)CCCNC(=O)c8cc(NC(=O)c9nc(NC(=O)CCNC(=O)c%10cc(NC(=O)c%11nccn%11C)cn%10C)cn9C)cn8C)cn7C)cn6C)cn5C)cc4)n3)cc2[C@H](Nc2ccc(C#N)cc2)C[C@@H]1C | B (B is 90% to 80%)

====

Tested on: human HTT mRNA, SNP rs362331 C allele, GM09197 fibroblasts
TEST METHOD NOTES: Screening of HD molecules in GM09197 fibroblasts, allele-specific HTT mRNA by RT-PCR, C allele
Format: cell-based
COND: 48 hr, C allele, Emin = lowest % HTT observed within compound concentration 0.5 nM to 1000 nM
READOUT: GM 09197 E min 48 Hr C Allele (%)

As a guide, the following entries are already answered.
Cn1cc(NC(=O)c2nc(NC(=O)CCNC(=O)c3cc(NC(=O)c4nccn4C)cn3C)cn2C)cc1C(=O)NCCCC(=O)Nc1cn(C)c(C(=O)NCCC(=O)Nc2cc(C(=O)Nc3cn(C)c(C(=O)NCCC(=O)NCCOCCOCCOCCOCCN4C[C@H](Nc5cnn(C)c(=O)c5Br)C[C@H](c5ccccc5)C4)n3)n(C)c2)n1 | C (C<80%)
Cc1sc2c(c1C)C(c1ccc(Cl)cc1)=N[C@@H](CC(=O)Nc1ccc(OCCOCCOCCOCCOCCOCCOCCOCCOCCOCCOCCOCCOCCOCCOCCOCCNC(=O)CCNC(=O)c3nc(NC(=O)c4cc(NC(=O)CCNC(=O)c5nc(NC(=O)OCCNC(=O)c6cc(NC(=O)c7nc(NC(=O)CCNC(=O)c8cc(NC(=O)c9nccn9C)cn8C)cn7C)cn6C)cn5C)cn4C)cn3C)cc1)c1nnc(C)n1-2 | A (A>90%)
Cc1noc(C)c1-c1ccc2c(c1)nc(CCc1ccc(OCCOCCOCCOCCOCCOCCOCCOCCOCCNC(=O)CCNC(=O)c3nc(NC(=O)c4cc(NC(=O)CCNC(=O)c5nc(NC(=O)CCCNC(=O)c6cc(NC(=O)c7nc(NC(=O)CCNC(=O)c8cc(NC(=O)c9nccn9C)cn8C)cn7C)cn6C)cn5C)cn4C)cn3C)c(Cl)c1)n2C[C@H](C)N1CCOCC1 | A (A>90%)
Cc1cc(F)cc(C)c1Oc1ccc(C(C)(C)O)cc1-c1cn(C)c(=O)c2[nH]c(C(=O)Nc3ccc(OCCOCCOCCOCCOCCOCCOCCOCCOCCNC(=O)CCNC(=O)c4nc(NC(=O)c5cc(NC(=O)CCNC(=O)c6nc(NC(=O)CCCNC(=O)c7cc(NC(=O)c8nc(NC(=O)CCNC(=O)c9cc(NC(=O)c%10nccn%10C)cn9C)cn8C)cn7C)cn6C)cn5C)cn4C)cc3)cc12 | A (A>90%)

Hi there! I need GM 09197 E min 48 Hr C Allele (%) for each item below, if you can.
1. Cc1noc(C)c1-c1ccc2c(c1)nc(CCc1ccc(OCCOCCOCCOCCOCCNC(=O)CCNC(=O)c3nc(NC(=O)c4cc(NC(=O)CCNC(=O)c5nc(NC(=O)CCCNC(=O)c6cc(NC(=O)c7nc(NC(=O)CCNC(=O)c8cc(NC(=O)c9nccn9C)cn8C)cn7C)cn6C)cn5C)cn4C)cn3C)c(Cl)c1)n2C[C@H](C)N1CCOCC1
2. Cn1cc(NC(=O)c2nc(NC(=O)CCNC(=O)c3cc(NC(=O)c4nccn4C)cn3C)cn2C)cc1C(=O)NCCCC(=O)Nc1cn(C)c(C(=O)NCCC(=O)Nc2cc(C(=O)Nc3cn(C)c(C(=O)NCCC(=O)NCCOCCOCCOCCOCCOCCOCCOCCOCCOCCOCCOCCOCCOCCOCCOCCN4C[C@H](Nc5cnn(C)c(=O)c5Br)C[C@H](c5ccccc5)C4)n3)n(C)c2)n1
3. Cn1cc(NC(=O)c2nc(NC(=O)CCNC(=O)c3cc(NC(=O)c4nccn4C)cn3C)cn2C)cc1C(=O)NCCCC(=O)Nc1cn(C)c(C(=O)NCCC(=O)Nc2cc(C(=O)Nc3cn(C)c(C(=O)NCCC(=O)NCCOCCOCCOCCOCCOCCOCCOCCOCCOCCOCCOCCOCCOCCOCCOCCOc4ccc(NC(=O)c5cc6c(-c7cc(S(C)(=O)=O)ccc7Oc7ccc(F)cc7F)cn(C)c(=O)c6[nH]5)cc4)n3)n(C)c2)n1
4. Cc1sc2c(c1C)C(c1ccc(Cl)cc1)=N[C@@H](CC(=O)Nc1ccc(OCCOCCOCCOCCOCCOCCOCCOCCOCCOCCOCCOCCOCCOCCOCCOCCNC(=O)c3cc(NC(=O)c4nc(NC(=O)c5cc(NC(=O)[C@@H](N)CCNC(=O)c6nc(NC(=O)CCNC(=O)c7cc(NC(=O)c8nccn8C)cn7C)cn6C)cn5C)cn4C)cn3C)cc1)c1nnc(C)n1-2
5. CCS(=O)(=O)Nc1ccc(Oc2ccc(F)cc2F)c(-c2cn(C)c(=O)c3[nH]c(C(=O)Nc4ccc(OCCOCCOCCOCCOCCOCCOCCOCCOCCNC(=O)CCNC(=O)c5nc(NC(=O)c6cc(NC(=O)CCNC(=O)c7nc(NC(=O)CCCNC(=O)c8cc(NC(=O)c9nc(NC(=O)CCNC(=O)c%10cc(NC(=O)c%11nccn%11C)cn%10C)cn9C)cn8C)cn7C)cn6C)cn5C)cc4)cc23)c1

Solution:
C (C<80%)
A (A>90%)
A (A>90%)
A (A>90%)
A (A>90%)

Problem: Input Cc1sc2c(c1C)C(c1ccc(Cl)cc1)=N[C@@H](CC(=O)Nc1ccc(OCCOCCOCCOCCOCCOCCOCCOCCOCCNC(=O)c3cc(NC(=O)c4nc(NC(=O)[C@H](N)CCNC(=O)c5cc(NC(=O)c6nc(NC(=O)CCNC(=O)c7cc(NC(=O)c8nccn8C)cn7C)cn6C)cn5C)cn4C)cn3C)cc1)c1nnc(C)n1-2 , output reported GM 09197 E min 48 Hr C Allele (%).
Solution: A (A>90%)

====

System: human HTT mRNA, SNP rs362331 C allele, GM09197 fibroblasts
TEST METHOD NOTES: Screening of HD molecules in GM09197 fibroblasts, allele-specific HTT mRNA by RT-PCR, C allele
Type: cell-based
COND: 48 hr, C allele, Emin = lowest % HTT observed within compound concentration 0.5 nM to 1000 nM
READOUT: GM 09197 E min 48 Hr C Allele (%)

As a guide, the following entries are already answered.
CCS(=O)(=O)Nc1ccc(Oc2ccc(F)cc2F)c(-c2cn(C)c(=O)c3[nH]c(C(=O)Nc4ccc(OCCOCCOCCOCCOCCOCCOCCOCCOCCOCCOCCOCCOCCOCCOCCOCCNC(=O)CCNC(=O)c5nc(NC(=O)c6cc(NC(=O)CCNC(=O)c7nc(NC(=O)NCCNC(=O)c8cc(NC(=O)c9nc(NC(=O)CCNC(=O)c%10cc(NC(=O)c%11nccn%11C)cn%10C)cn9C)cn8C)cn7C)cn6C)cn5C)cc4)cc23)c1 | B (B is 90% to 80%)
CCS(=O)(=O)Nc1ccc(Oc2ccc(F)cc2F)c(-c2cn(C)c(=O)c3[nH]c(C(=O)Nc4ccc(OCCOCCOCCOCCOCCOCCOCCOCCOCCOCCOCCOCCOCCOCCOCCOCCNC(=O)c5cc(NC(=O)c6nc(NC(=O)c7cc(NC(=O)[C@@H](N)CCNC(=O)c8nc(NC(=O)CCNC(=O)c9cc(NC(=O)c%10nccn%10C)cn9C)cn8C)cn7C)cn6C)cn5C)cc4)cc23)c1 | A (A>90%)
CCS(=O)(=O)Nc1ccc(Oc2ccc(F)cc2F)c(-c2cn(C)c(=O)c3[nH]c(C(=O)Nc4ccc(OCCOCCOCCOCCOCCOCCOCCOCCOCCOCCOCCOCCOCCOCCOCCOCCNC(=O)c5cc(NC(=O)c6nc(NC(=O)[C@H](N)CCNC(=O)c7cc(NC(=O)c8nc(NC(=O)CCNC(=O)c9cc(NC(=O)c%10nccn%10C)cn9C)cn8C)cn7C)cn6C)cn5C)cc4)cc23)c1 | A (A>90%)
Cn1cc(NC(=O)c2nc(NC(=O)CCNC(=O)c3cc(NC(=O)c4nccn4C)cn3C)cn2C)cc1C(=O)NCCCC(=O)Nc1cn(C)c(C(=O)NCCC(=O)Nc2cc(C(=O)Nc3cn(C)c(C(=O)NCCC(=O)NCCOCCOCCOCCOCCOCCOCCOCCOCCN4C[C@H](Nc5cnn(C)c(=O)c5Br)C[C@H](c5ccccc5)C4)n3)n(C)c2)n1 | A (A>90%)
CCNC(=O)c1cc2c(-c3cc(S(C)(=O)=O)ccc3Oc3ccc(OCCOCCOCCOCCOCCOCCOCCOCCOCCNC(=O)CCNC(=O)c4nc(NC(=O)c5cc(NC(=O)CCNC(=O)c6nc(NC(=O)CCCNC(=O)c7cc(NC(=O)c8nc(NC(=O)CCNC(=O)c9cc(NC(=O)c%10nccn%10C)cn9C)cn8C)cn7C)cn6C)cn5C)cn4C)cc3F)cn(C)c(=O)c2[nH]1 | A (A>90%)

Field: next compound
Problem: Given the compound Cc1sc2c(c1C)C(c1ccc(Cl)cc1)=N[C@@H](CC(=O)Nc1ccc(OCCOCCOCCOCCOCCOCCOCCOCCOCCNC(=O)c3cc(NC(=O)c4nc(NC(=O)c5cc(NC(=O)[C@@H](N)CCNC(=O)c6nc(NC(=O)CCNC(=O)c7cc(NC(=O)c8nccn8C)cn7C)cn6C)cn5C)cn4C)cn3C)cc1)c1nnc(C)n1-2 , write its reported GM 09197 E min 48 Hr C Allele (%).
Solution: B (B is 90% to 80%)
